The reported measurements were obtained from paper PMC6736568.

tested on: HCT-8 host cells (Hs18S); settings: primary screening at 10 uM, treated vs control
Counter-ions that a name gives are not always drawn.
Mark F for Hs18S ΔCT values under -0.04, and T for everything at or above.

Check the entry COc1ccc(/C=C/c2cc(O)cc(O[C@@H]3O[C@H](CO)[C@@H](O)[C@H](O)[C@H]3O)c2)cc1 : does Hs18S ΔCT equal or exceed -0.04?
T

Check the entry O=C(Oc1cc(O)cc2c1C[C@@H](OC(=O)c1cc(O)c(O)c(O)c1)[C@@H](c1cc(O)c(O)c(O)c1)O2)c1cc(O)c(O)c(O)c1 [EPIGALLOCATECHIN 3,5-DIGALLATE] : does Hs18S ΔCT equal or exceed -0.04?
F

Check the entry O=C1C=C2C(=CCOC2O)O1 (stereo not shown) : does Hs18S ΔCT equal or exceed -0.04?
T

Check the entry CC(=O)O[C@H]1CC[C@@]2(C)C(=CC[C@H]3[C@@H]4CC[C@H]([C@H](C)CCCC(C)C)[C@@]4(C)CC[C@@H]32)C1 [CHOLESTERYL ACETATE] : does Hs18S ΔCT equal or exceed -0.04?
F

Check the entry CC1(C)C2CC(=O)[C@]3(C)C(CC[C@@]4(C)[C@H](c5ccoc5)OC(=O)C5OC543)[C@@]2(C)[C@@H](O)C[C@H]1O (stereo partly shown) : does Hs18S ΔCT equal or exceed -0.04?
T

Check the entry COc1ccc(-c2coc3c4c(c(CC=C(C)C)c(O)c3c2=O)OC(C)(C)C=C4)cc1OC : does Hs18S ΔCT equal or exceed -0.04?
T

Check the entry CC(=O)[C@H]1CC[C@H]2[C@@H]3CC[C@H]4C[C@H](O)CC[C@]4(C)[C@H]3CC[C@]12C : does Hs18S ΔCT equal or exceed -0.04?
T

Check the entry OC[C@H]1O[C@@H](O[C@H]2[C@H](O)[C@@H](O)[C@H](O)O[C@@H]2CO)[C@H](O)[C@@H](O)[C@@H]1O [CELLOBIOSE (D[+])] : does Hs18S ΔCT equal or exceed -0.04?
T

Check the entry CN[C@@H]1[C@H](O[C@H]2[C@H](O[C@H]3[C@H](O)[C@@H](O)[C@H](NC(=N)N)[C@@H](O)[C@@H]3NC(=N)N)O[C@@H](C)[C@]2(O)CO)O[C@@H](CO)[C@H](O)[C@H]1O [DIHYDROSTREPTOMYCIN SULFATE] : does Hs18S ΔCT equal or exceed -0.04?
T

Check the entry COc1ccc(/C=C/C(=O)c2ccc(O)cc2O)cc1 [2',4'-DIHYDROXY-4-METHOXYCHALCONE] : does Hs18S ΔCT equal or exceed -0.04?
F

Check the entry CCN1C[C@]2(COC)[C@H](O)C[C@H](OC)[C@@]34[C@@H]5C[C@@]6(O)[C@H](OC(=O)c7ccccc7)[C@@H]5[C@@](OC(C)=O)([C@@H]([C@H](OC)[C@H]23)[C@@H]14)[C@@H](O)[C@@H]6OC : does Hs18S ΔCT equal or exceed -0.04?
F

Check the entry COC(=O)/C(C)=C\CC12OC(C)(C)C3CC(C=C4C(=O)c5c(c(CCC(C)(C)Cl)c6c(c5OC)C5CC(C)(CCC5=C(C)C)O6)OC431)C2=O (stereo not shown) [DIMETHYL GAMBOGINATE] : does Hs18S ΔCT equal or exceed -0.04?
T

Check the entry COc1ccc(-c2cc(=O)c3c(OC)c(OC)c(OC)c(OC)c3o2)cc1 : does Hs18S ΔCT equal or exceed -0.04?
T

Check the entry COc1ccc2c(=O)c(-c3ccc(O)cc3)coc2c1 : does Hs18S ΔCT equal or exceed -0.04?
F

Check the entry COc1cc([C@@H]2c3cc4c(cc3[C@H](OC(C)=O)[C@H]3COC(=O)[C@@H]23)OCO4)cc(OC)c1OC [PICROPODOPHYLLIN ACETATE] : does Hs18S ΔCT equal or exceed -0.04?
T

Check the entry CNC(=O)Oc1ccc2c(c1)[C@]1(C)CCN(C)[C@@H]1N2C [PHYSOSTIGMINE SALICYLATE] : does Hs18S ΔCT equal or exceed -0.04?
F

Check the entry COc1ccc([C@@H]2CC(=O)c3c(O)cc(O[C@@H]4O[C@H](CO[C@@H]5O[C@@H](C)[C@H](O)[C@@H](O)[C@H]5O)[C@@H](O)[C@H](O)[C@H]4O)cc3O2)cc1O : does Hs18S ΔCT equal or exceed -0.04?
T

Check the entry C[C@H](CC(=O)[C@@H]1OC1(C)C)[C@H]1C(=O)C[C@@]2(C)C3=CC[C@H]4C(C)(C)[C@@H](O[C@@H]5OC[C@@H](O)[C@H](O)[C@H]5O)CC[C@@]45C[C@@]35[C@@H](O)C[C@]12C [CIMICIFUGOSIDE H1] : does Hs18S ΔCT equal or exceed -0.04?
T

Check the entry O=C(O)/C=C/c1ccccc1 : does Hs18S ΔCT equal or exceed -0.04?
F

Check the entry COc1ccc2c(c1OC)C(=O)O[C@@H]2[C@H]1c2cc3c(cc2CCN1C)OCO3 [HYDRASTINE (1R, 9S)] : does Hs18S ΔCT equal or exceed -0.04?
F

Check the entry COc1ccc2c(c1)[nH]c1c(C)nccc12 : does Hs18S ΔCT equal or exceed -0.04?
T

Check the entry C[C@H]1C(=O)O[C@@H]2CCN3CC=C(COC(=O)[C@](C)(O)[C@]1(C)O)[C@H]23 : does Hs18S ΔCT equal or exceed -0.04?
T

Check the entry C=C(C)c1cc2cc(C(C)=O)c(O)cc2o1 : does Hs18S ΔCT equal or exceed -0.04?
T

Check the entry C[C@]12CC[C@H](O)C[C@H]1CC[C@@H]1[C@@H]2C[C@@H](O)[C@]2(C)[C@@H](C3=CC(=O)OC3)CC[C@]12O : does Hs18S ΔCT equal or exceed -0.04?
T

----------
assay: in vitro; conditions: human
Mark No for cytotoxicity at 41 h, 10 µM values under -10%, and Yes for everything at or above.

Check the entry COc1c(O)cccc1O : does cytotoxicity at 41 h, 10 µM equal or exceed -10%?
No

Check the entry CC(C)[C@@H](C)/C=C/[C@@H](C)[C@H]1CC[C@H]2C3=CC=C4C[C@@H](O)CC[C@]4(C)[C@H]3CC[C@]12C : does cytotoxicity at 41 h, 10 µM equal or exceed -10%?
Yes

Check the entry COc1ccc(C(=O)/C=C/c2ccccc2)cc1 : does cytotoxicity at 41 h, 10 µM equal or exceed -10%?
No

Check the entry COC(=O)c1c(C)cc(OC(=O)c2c(C)cc(O)c(C=O)c2O)c(C)c1O : does cytotoxicity at 41 h, 10 µM equal or exceed -10%?
Yes

Check the entry COC(=O)C[C@H]1C2(C)CC34OC5(C)O[C@@]6([C@H](OC(C)=O)C(OC(C)=O)[C@]7(C)C(/C(=C(/O)C(C)C)C(=O)O[C@H]7c7ccoc7)[C@@]6(O5)[C@H](OC(C)=O)[C@@]3(O)C2OC(=O)C(C)C)[C@]14C (stereo partly shown) : does cytotoxicity at 41 h, 10 µM equal or exceed -10%?
No

Check the entry Cc1cc(O)c(C=O)c2c1C(=O)Oc1c(C)c(O)c3c(c1O2)C(O)OC3=O (stereo not shown) : does cytotoxicity at 41 h, 10 µM equal or exceed -10%?
No

Check the entry COc1ccc(-c2cc(=O)c3c(OC)c(OC)c(OC)cc3o2)cc1OC : does cytotoxicity at 41 h, 10 µM equal or exceed -10%?
Yes

----------
assay: in vitro
Where a name gives a salt, the structure may show the parent alone.
Define the label as rule met when cytotoxicity at 10 µM is strictly less than 10% and as rule not met in all remaining cases.

Does COc1cc(O)c2c(c1)C(=O)c1cc(C)cc(O)c1C2=O have cytotoxicity at 10 µM strictly under 10%?
rule not met

Does O=C(O)CCCC[C@@H]1SC[C@@H]2NC(=O)N[C@@H]21 have cytotoxicity at 10 µM strictly under 10%?
rule met

Does C1CCN2C[C@@H]3C[C@@H](CN4CCCC[C@@H]34)[C@H]2C1 [SPARTEINE SULFATE] have cytotoxicity at 10 µM strictly under 10%?
rule met

Does COc1ccc2c(c1)[nH]c1c(C)nccc12 have cytotoxicity at 10 µM strictly under 10%?
rule not met

Does COc1cc(OC)c2c(OC)c(-c3ccc4c(c3)OCO4)c(=O)oc2c1 have cytotoxicity at 10 µM strictly under 10%?
rule met

Does COc1cc2occc2c2oc(=O)ccc12 have cytotoxicity at 10 µM strictly under 10%?
rule not met

Does C[C@@H]1O[C@@H](Oc2c(-c3ccc(O)c(O)c3)oc3cc(O)cc(O)c3c2=O)[C@H](O)[C@H](O)[C@H]1O have cytotoxicity at 10 µM strictly under 10%?
rule met

Does COc1cc(-c2coc3cc(OC)c(OC)c(OC)c3c2=O)cc(OC)c1OC have cytotoxicity at 10 µM strictly under 10%?
rule met

Does O=C(O)/C=C/C=C/c1ccc2c(c1)OCO2 have cytotoxicity at 10 µM strictly under 10%?
rule met

Does c1cncc([C@@H]2CCCCN2)c1 [ANABASINE HYDROCHLORIDE] have cytotoxicity at 10 µM strictly under 10%?
rule met

Does O=c1ccc2cc(O)c(O)cc2o1 have cytotoxicity at 10 µM strictly under 10%?
rule not met

Does CC1=C(O)C(=O)C=C2C1=CC=C1[C@@]2(C)CC[C@@]2(C)[C@@H]3C[C@](C)(C(=O)O)CC[C@]3(C)CC[C@]12C have cytotoxicity at 10 µM strictly under 10%?
rule not met

Does COc1ccc2c(c1)OC[C@@H](Cc1ccc(OC)c(OC)c1)[C@H]2O have cytotoxicity at 10 µM strictly under 10%?
rule met

Does CC(=O)N[C@@H](CC(=O)N[C@@H](CCC(=O)O)C(=O)O)C(=O)O have cytotoxicity at 10 µM strictly under 10%?
rule not met

Does O=c1c(O)c(-c2ccc(O)c(O)c2)oc2c(O)c(O)cc(O)c12 have cytotoxicity at 10 µM strictly under 10%?
rule met

Does C=C(C)[C@H]1Cc2c(ccc3c(=O)c4c(oc23)COc2cc(OC)c(OC)cc2-4)O1 [DEHYDROROTENONE] have cytotoxicity at 10 µM strictly under 10%?
rule met

Does C[C@@H]1C(=O)O[C@H]2[C@H]1CC[C@@]1(C)C=CC(=O)[C@@]3(C)O[C@@]213 [EPOXY (4,5alpha)-4,5-DIHYDROSANTONIN] have cytotoxicity at 10 µM strictly under 10%?
rule met

Does C[C@H]1O[C@@H](O[C@H]2[C@@H](O)C[C@H](O[C@H]3[C@@H](O)C[C@H](O[C@H]4CC[C@@]5(C)[C@H](CC[C@@H]6[C@@H]5CC[C@]5(C)[C@@H](C7=CC(=O)OC7)[C@@H](O)C[C@]65O)C4)O[C@@H]3C)O[C@@H]2C)C[C@H](O)[C@@H]1O have cytotoxicity at 10 µM strictly under 10%?
rule met

Does CC(=O)[C@H]1CC[C@H]2[C@@H]3CC[C@H]4C[C@H](O)CC[C@]4(C)[C@H]3CC[C@]12C have cytotoxicity at 10 µM strictly under 10%?
rule met

Does O=C(O)[C@@H](O)[C@](O)(Cc1ccc(O)cc1)C(=O)O have cytotoxicity at 10 µM strictly under 10%?
rule met

Does CNc1ccccc1C(=O)O have cytotoxicity at 10 µM strictly under 10%?
rule not met

Does O=C1C=CC(=O)c2c(O)cccc21 have cytotoxicity at 10 µM strictly under 10%?
rule not met

Does COc1cc2c(cc1OC)[C@@H]1C(=O)c3ccc4c(c3O[C@@H]1CO2)CC(C(C)C)O4 (stereo partly drawn) [DIHYDROROTENONE] have cytotoxicity at 10 µM strictly under 10%?
rule not met

Does COc1cc2c(cc1O)C[C@H]1c3c(cc(O)c(OC)c3-2)CCN1C have cytotoxicity at 10 µM strictly under 10%?
rule met

Does CC1=C2[C@H]3OC(=O)[C@@H](C)[C@@H]3CC[C@@]2(C)C=CC1=O have cytotoxicity at 10 µM strictly under 10%?
rule not met

Does CC1(C)C(=O)[C@@H]2C[C@@]3(O)C4=CC(=O)O[C@@H](c5ccoc5)[C@]4(C)CC[C@@H]3[C@@](C)(C2=O)[C@H]1CC(=O)O [8-HYDROX[…]] have cytotoxicity at 10 µM strictly under 10%?
rule not met

Does CO[C@H]1[C@H](O)[C@H](O[C@H]2CC[C@@]3(C=O)[C@H](CC[C@@H]4[C@@H]3CC[C@]3(C)[C@@H](C5=CC(=O)OC5)CC[C@]43O)C2)O[C@@H](C)[C@@H]1O [PERUVOSIDE] have cytotoxicity at 10 µM strictly under 10%?
rule not met

Does COc1cc(OC)c2c(=O)cc(-c3ccccc3)oc2c1 have cytotoxicity at 10 µM strictly under 10%?
rule met

Does O=c1ccc2ccc(O)cc2o1 have cytotoxicity at 10 µM strictly under 10%?
rule met

Does Cc1c(C)c2c(c(C)c1O)CCC(C)(CCCC(C)CCCC(C)CCCC(C)C)O2 (stereo not drawn) have cytotoxicity at 10 µM strictly under 10%?
rule not met

Does CC(=O)O[C@@H]1[C@H]2CC[C@H]3[C@@](C)(O)[C@@H]4C[C@H](O)C(C)(C)[C@@]4(O)[C@H](O)C[C@@]13C[C@@]2(C)O [GR[…]] have cytotoxicity at 10 µM strictly under 10%?
rule met

Does Cn1c(=O)c2c(ncn2C)n(C)c1=O have cytotoxicity at 10 µM strictly under 10%?
rule not met

Does CN1[C@@H]2CC[C@H]1C[C@@H](OC(=O)[C@H](CO)c1ccccc1)C2 have cytotoxicity at 10 µM strictly under 10%?
rule met
